Test system: NCI-H23 lung
Assay: NCI-60 one-dose screen, 48 h
Conditions: 10 µM unless noted
Method: Growth inhibition of the NCI-H23 human Non-Small Cell Lung tumor cell line is measured as a screen for anti-cancer activity. Cells are grown in 96 well plates and exposed to the test compound for 48 hours. Compounds are tested at a single concentration, which is 10^-5 M for most compounds. The reported endpoint is percent growth (GI% or GIPRCNT), where numbers from 0 - 100% represent growth inhibition, and numbers from -100% - 0 represent cell death. […]
About 83,000 compounds went through this panel and 20% of them were active in at least one assay; those are over-represented in the sample as a whole. The source made the active and inactive calls. The calls were made as follows: active = growth percent below 10; inactive = the rest.
Reply using exactly one outcome from 1 (yes) = active, 0 (no) = inactive

### Prompt Which outcome was assigned to CN1C(=O)NC(Cc2c[nH]c3c(Cl)cccc23)C1=O (stereo unspecified) in this test?
### Response 0 (no)

### Prompt Which outcome was assigned to CC(C)OC1OC(OC(C)C)C(OC(C)C)OC1OC(C)C (stereo unspecified) in this test?
### Response 0 (no)

### Prompt Which outcome was assigned to COc1cc(CN2CCC(N3CCCC3=O)c3ccccc32)cc(OC)c1OC (stereo unspecified) in this test?
### Response 0 (no)

### Prompt Which outcome was assigned to `COC(=O)[C@H](Cc1cn(C)cn1)NC(=O)[C@H](CC(C)C)NC(=O)Nc1cc(C(F)(F)F)cc(C(F)(F)F)c1` in this test?
### Response 1 (yes)

### Prompt Which outcome was assigned to `O=C1Nc2ccc(Br)cc2/C1=N/c1nc(-c2ccccc2)cs1` in this test?
### Response 0 (no)

### Prompt Which outcome was assigned to `NNC(=O)CSc1nc2scc(-c3ccccc3)c2c(=O)n1-c1ccccc1` in this test?
### Response 0 (no)

The values you see were collected from PubChem BioAssay (NCI).
